// provenance: a melting point compilation (Tetko et al.)

Readout Type: melting point (°C)

(I) CCOC(=O)C=C1SC(N2CCCCC2)C(=O)N1C (stereo not drawn)
(II) O=C(O)c1ccccc1-c1ccco1
(III) Cc1cc(C2(c3cc(C)c(O)c(Br)c3C)OS(=O)(=O)c3ccccc32)c(C)c(Br)c1O
(IV) CCC(C)(C)[C@H]1CC[C@H](O)CC1
Descending by melting point please, for everything listed above. I'd appreciate it if you listed the labels in the requested order.
III, I, II, IV
(III: 218 °C, I: 140 °C, II: 87 °C, IV: 26 °C)

---

Readout Type: melting point (°C)

CC=Cc1ccc2c(c1)OCO2 = 8.2
CN1CCC2=C(C1)C(c1ccccc1)c1ccccc12 (stereo not given) = 91
NC(=O)c1ccc(Cl)c(Cl)c1 = 141
C=Cc1cccc(C(N)=O)c1 = 133

---

Catalogue of melting point values

NCc1cc(-c2ccco2)on1 = 46 to 49 °C
OCc1ccc(N2CCCCC2)nc1 = 70 to 71 °C

Dear colleague, I am looking for the recorded melting point of the following molecule: `O=S(=O)(Cl)c1ccc(-c2ccccc2)nc1`
106 to 108 °C

---

Readout Type: melting point

Given the compound `ON=Cc1ccccc1O` , what is its reported melting point?
56 to 59 °C

Param item: `CC(=O)c1ccc2c(c1)CCO2`
62 to 64 °C

Same for `SC1=NC2(CCCCC2)NN1c1ccccc1`
146 to 149 °C

Then what about the compound `CN1CCOc2cc(C(=O)Cl)ccc21` ?
96 to 100 °C

Another compound to look at: `CC(C)(C)OC(=O)N[C@@H](C=O)Cc1ccccc1`
85 to 89 °C

Could you do the same for `O=C(O)c1cccc(I)c1C(=O)O` , please?
178 to 182 °C

Queued: `O=C(O)C=Cc1cccc([N+](=O)[O-])c1`
202 to 204 °C

# repeat for `O=C(OCc1ccccc1)c1cnc(Cl)nc1C(F)(F)F`
45 to 47 °C

Thanks! And `Cc1nc(-c2ccccc2)sc1C(=O)Cl` ?
122 to 124 °C

---

Readout Type: melting point (°C)

(A) N=C(Nc1ccccc1)c1ccccc1
(B) N#Cc1ccc(C(F)(F)F)cc1
(C) CC(=O)OCC(=O)C12OC(C)(C)OC1CC1C3CC(C=O)=C4C=C(OCCCl)CCC4(C)C3(F)C(O)CC12C (configuration not stated)
Order the above molecules by increasing melting point. In plain terms: list the labels in the order you were asked to.
B, A, C
(B: 38 °C, A: 119 °C, C: 181 °C)

(I) Cc1c(C)c2c(c3c1CC3=O)CC2=O
(II) O=C1C2CC3CC(C2)CC1C3
Thinking about recorded melting point values, which is higher, I or II ? Lab log: write the label of the selected item as the result.
II
(II: 286 °C, I: 161 °C)

---

Readout Type: melting point

Please review the entries below; each comes with its answer.
CCOC(=O)c1c(=S)ncn2c1[nH]c1ccccc12 = 194 to 198 °C
O=C(O)CCC(=O)c1ccc(Br)cc1 = 146 to 147 °C
O=C(OC(=O)C(=Cc1ccccc1)Cc1ccccc1)C(=Cc1ccccc1)Cc1ccccc1 = 107 to 109 °C

melting point lookup needed for `CC(C)[C@H](O)C(=O)O` , thanks.
65 to 68 °C

Same again, this time with `Cc1ccc(C(=O)NCC(=O)O)cc1`
162 to 166 °C

Another molecule to check: `Cc1cc(CO)ccc1[N+](=O)[O-]`
56 to 60 °C

Please give the result for OC(Cn1ccnc1)c1ccc(Cl)cc1Cl (stereo not drawn) too.
134 to 138 °C

And what about the molecule `O=C=Nc1ccc2c(c1)OCCOCCOCCOCCOCCO2` ?
61 to 63 °C
